molecular target: HLA B7 (Homo sapiens); assay: biochemical
Sequence (P01889 25-362): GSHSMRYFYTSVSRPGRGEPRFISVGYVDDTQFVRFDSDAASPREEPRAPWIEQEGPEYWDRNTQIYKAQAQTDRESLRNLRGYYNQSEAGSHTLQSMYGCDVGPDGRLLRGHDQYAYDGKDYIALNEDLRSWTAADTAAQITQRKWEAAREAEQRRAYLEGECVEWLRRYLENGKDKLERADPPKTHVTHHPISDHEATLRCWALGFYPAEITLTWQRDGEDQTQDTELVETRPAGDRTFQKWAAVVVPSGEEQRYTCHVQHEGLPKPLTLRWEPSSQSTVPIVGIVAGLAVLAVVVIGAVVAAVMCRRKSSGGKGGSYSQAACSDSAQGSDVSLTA
Sequence (P61769 21-119, further chain): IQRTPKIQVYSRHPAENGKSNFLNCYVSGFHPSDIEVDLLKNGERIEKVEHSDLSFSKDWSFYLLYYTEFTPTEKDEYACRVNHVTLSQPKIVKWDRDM
pIC50: −log10 of the molar value. No end group written: not given here.
readout_type: pIC50

Req: Input IPLTINKEEAL [IPLTINKEEAL] , output reported pIC50.
Resp: < 4.52

====

molecular target: HLA A3.2 (Homo sapiens, UniProt P04439); construct: endogenous in cells; test: biochemical; assay type: binding; settings: concentration for 50% inhibition, HLA A3.2, text b187
Sequence (P04439 25-365, one chain of several): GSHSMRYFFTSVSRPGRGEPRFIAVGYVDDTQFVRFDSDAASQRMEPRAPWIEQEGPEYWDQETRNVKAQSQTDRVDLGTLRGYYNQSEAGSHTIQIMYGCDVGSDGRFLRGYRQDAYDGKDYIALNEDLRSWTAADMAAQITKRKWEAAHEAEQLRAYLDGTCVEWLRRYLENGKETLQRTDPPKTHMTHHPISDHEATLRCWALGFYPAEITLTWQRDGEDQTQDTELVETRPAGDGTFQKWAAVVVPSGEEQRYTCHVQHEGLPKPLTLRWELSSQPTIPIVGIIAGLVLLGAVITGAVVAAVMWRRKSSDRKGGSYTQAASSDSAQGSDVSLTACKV
No end group written: not given here.
readout_type: IC50 (nM)
Reply numerically in nM, unit not repeated.

Req: Please give the documented IC50 of `HSATGFKQSSK`
Resp: 400

====

target: HLA A3.2 (Homo sapiens, UniProt P04439); construct: endogenous in cells; assay: biochemical; assay type: binding; details: AFFINITY (nM) A3.2, Table 1, CML peptides; 50% inhibition of standard peptide binding
No end group written: not given here.
# strict inequality: IC50 < 400 nM yields true, everything else yields false

Req: Below 400 nM on IC50? Entry `ATGFKQSSK`
Resp: true

Req: Would you kindly verify if IC50 of `SATGFKQSSK` is strictly less than 400 nM?
Resp: false

Req: Below 400 nM on IC50? Entry `TGFKQSSK`
Resp: false

Req: I'd appreciate it if you could check whether `TINKEEALQR` has IC50 smaller than 400 nM.
Resp: false

Req: Please let me know if `GFKQSSKALQR` shows IC50 below 400 nM.
Resp: false

Req: I wonder whether `FKQSSKALQR` has IC50 below 400 nM. Can you tell?
Resp: false

// provenance: patent US6156316A
